System: FRK;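 note: KINOMEscan kinase panel screen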
Settings: concentration: 1 μM,replicates: in singlicate; n = 1
property label: %Inh (%)

compound: CC(C)N1C(=O)Cc2cc(Nc3ncc(C(F)(F)F)c(NCc4cccc(S(C)(=O)=O)c4)n3)ccc21
reading unit: %
value: 0

compound: CCN(CC)CCCCNc1ncc2cc(-c3c(Cl)cccc3Cl)c(NC(=O)NC(C)(C)C)nc2n1
reading unit: %
value: 96.2

compound: C[C@@H]1CCN(C(=O)CC#N)C[C@@H]1N(C)c1ncnc2[nH]ccc12
reading unit: %
value: 0

compound: CNC(=O)c1ccccc1Sc1ccc2c(/C=C/c3ccccn3)n[nH]c2c1
reading unit: %
value: 0

compound: CCn1c(-c2nonc2N)nc2c(C#CC(C)(C)O)nc(OCCN)cc21.Cl.Cl
reading unit: %
value: 6

compound: Cc1cc(C(=O)Nc2ccc(Oc3ccc4nc(NC(=O)C5CC5)cn4n3)cc2)nn1-c1ccccc1
reading unit: %
value: 0

compound: Cc1ccc(-n2nc(C(C)(C)C)cc2NC(=O)Nc2ccc(OCCN3CCOCC3)c3ccccc23)cc1
reading unit: %
value: 48

compound: Cl.Cl.Nc1nc(-c2ccc3c(N)n[nH]c3c2)cc(N2CCCC(NC(=O)c3ccccc3)C2)n1 (centres unmarked)
reading unit: %
value: 0

compound: C=CC(=O)Nc1cc2c(Nc3ccc(F)c(Cl)c3)ncnc2cc1OCCCN1CCOCC1
reading unit: %
value: 30

compound: Cc1ccc2c(-c3ccncc3)c(-c3ccc(F)cc3)nn2c1.Cl
reading unit: %
value: 20

compound: Cc1occc1-c1nc(N)c(OC[C@@H](N)Cc2c[nH]c3ccccc23)cc1-c1cc2c(C)n[nH]c2cn1
reading unit: %
value: 75

compound: O=C(NCCCN1CCOC1=O)c1cnc(NCc2cc(Cl)ccc2Cl)nc1NC1CCCC1
reading unit: %
value: 18

compound: COc1ccc(C[C@@H](CN)NC(=O)c2cc(Br)c(-c3ccnc4[nH]ccc34)s2)cc1.Cl.Cl
reading unit: %
value: 29

compound: Cc1n[nH]c2ccc(-c3cc(OC[C@@H](N)Cc4ccccc4)cnc3-c3ccoc3)cc12.O=C(O)C(F)(F)F.O=C(O)C(F)(F)F
reading unit: %
value: 0

compound: O=C(NCCNc1ccnc(NCc2ccc(F)cc2)n1)c1cc2ccccc2s1
reading unit: %
value: 15

compound: Cl.Oc1cc(-c2nc(-c3ccccc3)[nH]c2-c2ccncc2)ccc1Cl
reading unit: %
value: 73

compound: C[C@H]1Oc2cc(cnc2N)-c2c(nn(C)c2C#N)CN(C)C(=O)c2ccc(F)cc21
reading unit: %
value: 92
